Experiment: inhibition of endothelial tube formation, primary screen, imaging, VEGF stimulated, CD31 staining, tube area, NPC library (AID 1117340)
Conditions: VEGF-stimulated ADSC/ECFC co-culture, at 10 µM, hits give high values
Result Type: tube area decrease (%)

INSERT INTO assay_data (molecule, result_type, result) VALUES
  ('CCN1CCC[C@H]1CNC(=O)c1cc(S(N)(=O)=O)ccc1OC', 'tube area decrease', 10.5),
  ('COc1cccc2c1C(=O)c1c(O)c3c(c(O)c1C2=O)C[C@@](O)(C(=O)CO)C[C@@H]3O[C@H]1C[C@H](N)[C@H](O)[C@H](C)O1', 'tube area decrease', 22.7),
  ('O=c1c(-c2ccccc2)c1-c1ccccc1', 'tube area decrease', 103),
  ('CC(C)(Sc1cc(C(C)(C)C)c(O)c(C(C)(C)C)c1)Sc1cc(C(C)(C)C)c(O)c(C(C)(C)C)c1', 'tube area decrease', -25),
  ('CCCc1c(OCCCCc2nn[nH]n2)ccc(C(C)=O)c1O', 'tube area decrease', 15.6),
  ('NC(N)=NS(=O)(=O)c1ccc(N)cc1', 'tube area decrease', -2.9),
  ('CCCc1nc(C)c2c(=O)[nH]c(-c3cc(S(=O)(=O)N4CCN(CC)CC4)ccc3OCC)nn12', 'tube area decrease', -2.1),
  ('CCOC(=O)O[C@]1(C(=O)OCCl)CC[C@H]2[C@@H]3CCC4=CC(=O)C=C[C@]4(C)[C@H]3[C@@H](O)C[C@@]21C', 'tube area decrease', -0.4),
  ('COc1cc([C@H]2Oc3cc([C@H]4Oc5cc(O)cc(O)c5C(=O)[C@@H]4O)ccc3O[C@@H]2CO)ccc1O', 'tube area decrease', 4.2),
  ('CC[N+](C)(C)Cc1ccccc1Br', 'tube area decrease', 10),
  ('C[C@H](NC(CCc1ccccc1)C(=O)O)C(=O)N1CCC[C@H]1C(=O)O (stereo partly specified)', 'tube area decrease', -8),
  ('O=NN(CCCl)C(=O)NCCCl', 'tube area decrease', 23.1),
  ('CC(CN(C)C)CN1c2ccccc2CCc2ccccc21 (stereo unspecified)', 'tube area decrease', 13.4),
  ('CCOc1cc(CC(=O)N[C@@H](CC(C)C)c2ccccc2N2CCCCC2)ccc1C(=O)O', 'tube area decrease', -11.3),
  ('CC(=O)N(O)CCCCCNC(=O)CCC(=O)N(O)CCCCCNC(=O)CCC(=O)N(O)CCCCCN', 'tube area decrease', 83),
  ('NC(=O)c1ccccc1O', 'tube area decrease', -13.1),
  ('Cc1[nH]c(=O)c(C#N)cc1-c1ccncc1', 'tube area decrease', 4),
  ('CN(C)[C@@H]1C(=O)C(C(N)=O)=C(O)[C@@]2(O)C(=O)C3=C(O)c4c(O)ccc(Cl)c4[C@@H](O)[C@H]3C[C@@H]12', 'tube area decrease', 17.3),
  ('COc1ccccc1OCC(O)CO (stereo unspecified)', 'tube area decrease', -23.8),
  ('CC1(C)O[C@@H]2C[C@H]3[C@@H]4CCC5=CC(=O)CC[C@]5(C)[C@@]4(F)[C@@H](O)C[C@]3(C)[C@]2(C(=O)CCl)O1', 'tube area decrease', 10.2),
  ('CC(C)NNC(=O)c1ccncc1', 'tube area decrease', 5.7),
  ('O=C(O)CCNC(=O)c1ccccc1', 'tube area decrease', -2),
  ('CCn1cc(C(=O)O)c(=O)c2cnc(N3CCCC3)nc21', 'tube area decrease', 1.8),
  ('CC(=O)Oc1ccccc1C(=O)O', 'tube area decrease', 9.2),
  ('COCCCOc1cc(C[C@@H](C[C@H](N)[C@@H](O)C[C@H](C(=O)NCC(C)(C)C(N)=O)C(C)C)C(C)C)ccc1OC', 'tube area decrease', 19.9),
  ('Cc1nc(N)nc(N)c1-c1ccc(Cl)c(Cl)c1', 'tube area decrease', -11.8),
  ('CC1=CC(=O)c2ccccc2C1=O', 'tube area decrease', 26.3),
  ('CC(C)NC[C@@H](O)COc1cccc2ccccc12', 'tube area decrease', 5.1),
  ('NCC1CCC(C(=O)O)CC1 (stereo unspecified)', 'tube area decrease', 25.3),
  ('O=C(O)CSCC(=O)NC1CCSC1=O (stereo unspecified)', 'tube area decrease', -2.7),
  ('O=C1OC(c2ccc(O)cc2)(c2ccc(O)cc2)c2ccccc21', 'tube area decrease', 14.1),
  ('CC1CCN(CCCC(=O)c2ccc(F)cc2)CC1', 'tube area decrease', 10.4),
  ('OC(CCN1CCCCC1)(c1ccccc1)c1ccccc1', 'tube area decrease', 1.5),
  ('COc1cc(-c2ccc(=O)[nH]n2)ccc1OC(F)F', 'tube area decrease', 99.9),
  ('CC(=O)OCC(COC(C)=O)OC(C)=O', 'tube area decrease', -8.3),
  ('CCCCCN(CCCCC)C(=O)C(CCC(=O)O)NC(=O)c1ccc(Cl)c(Cl)c1 (stereo unspecified)', 'tube area decrease', 4.7),
  ('Cc1c(C(N)=O)cc([N+](=O)[O-])cc1[N+](=O)[O-]', 'tube area decrease', -5.4),
  ('Cc1cn[nH]c1', 'tube area decrease', 4.6),
  ('NCCCC(=O)O', 'tube area decrease', 12),
  ('Cc1cc(C)cc(OCC2CNC(=O)O2)c1 (stereo unspecified)', 'tube area decrease', 12.5),
  ('CCOC(=O)C1=C[C@]2(CC)CCCN3CCc4c(n1c1ccccc41)[C@@H]32', 'tube area decrease', 41),
  ('O=C1c2ccccc2C(=O)C1c1ccccc1', 'tube area decrease', -11),
  ('Cc1onc(-c2ccccc2)c1C(=O)N[C@@H]1C(=O)N2[C@@H]1SC(C)(C)[C@@H]2C(=O)O', 'tube area decrease', -1.6),
  ('CCCCC1(COC(=O)CCC(=O)O)C(=O)N(c2ccccc2)N(c2ccccc2)C1=O', 'tube area decrease', -1.7),
  ('CN1CCCCC1CCN1c2ccccc2Sc2ccc(S(C)=O)cc21 (stereo unspecified)', 'tube area decrease', 16.9),
  ('O=c1[nH]cnc2c1ncn2[C@@H]1O[C@H](CO)[C@@H](O)[C@H]1O', 'tube area decrease', 2.1);
